Molecular target: CYP3A4 (Homo sapiens, UniProt P08684)
Construct: from tissue; host or cells: pooled human liver microsomes
Sequence (P08684 whole entry): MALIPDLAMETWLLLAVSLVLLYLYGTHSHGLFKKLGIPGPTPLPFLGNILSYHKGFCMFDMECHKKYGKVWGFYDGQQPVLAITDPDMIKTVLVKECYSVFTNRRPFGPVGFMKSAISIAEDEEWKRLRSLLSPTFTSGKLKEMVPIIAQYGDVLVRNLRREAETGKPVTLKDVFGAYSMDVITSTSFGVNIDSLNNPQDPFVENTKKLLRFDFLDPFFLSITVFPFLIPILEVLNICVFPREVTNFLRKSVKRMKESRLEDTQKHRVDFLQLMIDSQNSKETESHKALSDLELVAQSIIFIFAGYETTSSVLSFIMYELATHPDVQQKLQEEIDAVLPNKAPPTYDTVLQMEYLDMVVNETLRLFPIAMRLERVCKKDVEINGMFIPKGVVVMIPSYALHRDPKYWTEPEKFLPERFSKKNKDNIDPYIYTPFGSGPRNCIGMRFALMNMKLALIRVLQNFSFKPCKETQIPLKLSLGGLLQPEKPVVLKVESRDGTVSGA
Assay: CYP450 Inhibition Assay 2 (pooled human liver microsomes, 5 concentrations)
Format: in vitro ADME
Conditions: Table 3; HLM 0.05 mg protein/mL, 10 min reaction
property-label: IC50 (µM)

Answered cases to consult:
INSERT INTO assay_data (molecule, property_label, obs_value) VALUES
  ('CCC1=C(Cc2ccc(C(F)(F)F)cn2)C(=O)c2ccccc2C1=O', 'IC50', 14.2),
  ('CC1=C(C(C)c2ccccn2)C(=O)c2ccccc2C1=O (stereo not drawn)', 'IC50', 20.1),
  ('CC1=C(Cc2ccc(C(=O)N(C)C(C)C)cn2)C(=O)c2ccccc2C1=O', 'IC50', 20.7);

[1] CC1=C(Cc2ccc(C(=O)NC3(C)CCC3)cn2)C(=O)c2ccccc2C1=O
[2] CC(C)CC1=C(Cc2ccc(C(F)(F)F)cn2)C(=O)c2ccccc2C1=O
[3] CC1=C(Cc2ccccn2)C(=O)c2ccccc2C1=O
Query block: Give the ascending ranking of the items by reported IC50. Reply with the labels, ordered as the question asks.
Result block: 3, 2, 1

[I] CC1=C(Cc2ccc(C(N)=O)cn2)C(=O)c2ccccc2C1=O
[II] CC1=C(Cc2ccc(C(F)(F)F)cn2)C(=O)c2ccccc2C1=O
Query block: // pick min by IC50: I , II // respond with label for picked entry
Result block: I
(I: 23 µM, II: 35.7 µM)

Values from patent US20230002324A1
